Ki listing for selected compounds.
Measured target: cloned human CRF-R1 receptors (Homo sapiens, UniProt P34998)
Sequence (P34998 24-415): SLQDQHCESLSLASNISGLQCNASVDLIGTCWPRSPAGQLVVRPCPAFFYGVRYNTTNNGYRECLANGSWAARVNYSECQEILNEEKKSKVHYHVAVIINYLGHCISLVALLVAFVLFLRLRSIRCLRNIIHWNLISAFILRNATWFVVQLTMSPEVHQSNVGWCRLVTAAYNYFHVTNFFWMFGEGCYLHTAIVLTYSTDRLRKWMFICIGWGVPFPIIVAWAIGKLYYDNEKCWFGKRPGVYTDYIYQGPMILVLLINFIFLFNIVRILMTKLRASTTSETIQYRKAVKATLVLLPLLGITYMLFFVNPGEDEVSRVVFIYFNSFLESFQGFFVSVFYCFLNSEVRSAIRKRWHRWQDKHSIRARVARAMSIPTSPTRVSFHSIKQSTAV

Use the examples below as a reference point.
{"Compound": "CCc1ccc(S(=O)(=O)c2ccc(C)nc2Nc2ccc(OC)cc2Cl)cc1 [Example 69]", "Ki": "100 to 500 nM"}
{"Compound": "Cc1cc(C)c(Nc2nc(C)ccc2S(=O)(=O)c2ccc(C(=O)c3ccccc3)cc2)c(C)c1 [Example 54]", "Ki": "≤ 100 nM"}
{"Compound": "CCC(Oc1ccc(S(=O)(=O)c2ccc(C)nc2Nc2c(C)cc(C)cc2C)cc1)C(=O)OC (centres unmarked) [Example 18]", "Ki": "100 to 500 nM"}
{"Compound": "COc1ccccc1-c1ccc(S(=O)(=O)c2ccc(C)nc2Nc2c(C)cc(C)cc2C)cc1 [Example 49]", "Ki": "≤ 100 nM"}

*Q* Need Ki of Cc1cc(C)c(Nc2nc(C)ccc2S(=O)(=O)c2ccc(-c3ccccc3)cc2)c(C)c1 [Example 48] , thanks.
*A* ≤ 100 nM

*Q* Give the measured Ki of Cc1cc(C)c(Nc2nc(C)ccc2S(=O)(=O)c2cccc(O)c2)c(C)c1 [Example 57] .
*A* 100 to 500 nM

*Q* Field request: Ki | item: C#Cc1ccc(S(=O)(=O)c2ccc(C)nc2Nc2c(C)cc(C)cc2C)cc1 [Example 47]
*A* ≤ 100 nM

*Q* Query (compound): Cc1cc(C)c(Nc2nc(C)ccc2S(=O)(=O)c2ccc(OCc3csc(C)n3)cc2)c(C)c1 [Example 21] ; field requested: Ki
*A* 100 to 500 nM

---

Reported Ki, cloned human CRF-R1 receptors (Homo sapiens, UniProt P34998).

Here are 2 compounds together with their reported answers.
{"Compound": "Cc1cc(C)c(Nc2nc(C)ccc2S(=O)(=O)c2ccc(OCc3cccc(C#N)c3)cc2)c(C)c1", "Measured target": "cloned human CRF-R1 receptors (Homo sapiens, UniProt P34998)", "Ki": "≤ 100 nM"}
{"Compound": "Cc1cc(C)c(Nc2nc(C)ccc2S(=O)(=O)c2ccc(OCc3ccccn3)cc2)c(C)c1", "Measured target": "cloned human CRF-R1 receptors (Homo sapiens, UniProt P34998)", "Ki": "100 to 500 nM"}

Okay, now this compound:
*Q* # query: Ki | item Cc1cc(C)c(Nc2nc(C)ccc2S(=O)(=O)c2ccc(C(O)c3ccccc3)cc2)c(C)c1 (centres unmarked) | system: cloned human CRF-R1 receptors (Homo sapiens, UniProt P34998)
*A* 100 to 500 nM
